# credit: patent US8058243B2

# Tested on: murine neural precursor cells (neurosphere cultures)
# RUN DESCRIPTION: HTS of LOPAC library against secondary neurosphere cultures, MTT proliferation assay at 3 μM, day 7 (z score, P value)
# Type: cell-based, mouse
# APPLIED CONDITIONS: LOPAC library screen, 3 μM, MTT, neurosphere cultures
Counter-ions that a name gives are not always drawn.
The following molecules are shown together with reported Z Score values.
Respond numerically, and do not add a unit to the figure.

Below, 5 molecules whose answers are already recorded.
COCCCC/C(=N\OCCN)c1ccc(C(F)(F)F)cc1 [Fluvoxamine maleate] | 0.1323
O=C1NC(=O)C(c2ccccc2)(c2ccccc2)N1 [5,5-Diphenylhydantoin] | 1.383
CCN(CC)CCNC(=O)c1ccc(N)cc1 [Procainamide hydrochloride] | 0.6535
CN1CCC(=C2c3ccccc3CC(=O)c3sccc32)CC1 [Ketotifen fumarate] | 0.9573
C[C@]12CC[C@@H]3c4ccc(O)cc4CC[C@H]3[C@@H]1CCC2=O [Estrone] | 0.04081

With murine neural precursor cells (neurosphere cultures) as the test system, provide measured Z Score for this molecule: CCCCCCCCCC[Si](C)(C)CCC(=O)NC(Cc1ccc(C)cc1)c1ccccc1 (centres unmarked) [Sandoz 58-035]
0.3325

With murine neural precursor cells (neurosphere cultures) as the test system, provide measured Z Score for this molecule: CCn1cc(C(=O)O)c(=O)c2ccc(Cc3ccccc3)nc21 [Amfonelic acid]
0.488

With murine neural precursor cells (neurosphere cultures) as the test system, provide measured Z Score for this molecule: CNC(=C[N+](=O)[O-])NCCSCc1ccc(CN(C)C)o1 [Ranitidine hydrochloride]
0.02275

With murine neural precursor cells (neurosphere cultures) as the test system, provide measured Z Score for this molecule: CC(=O)O[C@H]1C[C@@H]2CC[C@@H]3[C@H](CC[C@@]4(C)[C@H]3C[C@H]([N+]3(C)CCCCC3)[C@@H]4OC(C)=O)[C@@]2(C)C[C@@H]1[N+]1(C)CCCCC1 [Pancuronium bromide]
0.4077

With murine neural precursor cells (neurosphere cultures) as the test system, provide measured Z Score for this molecule: CC(CCc1ccc(O)cc1)NCCc1ccc(O)c(O)c1 (centres unmarked) [Dobutamine hydrochloride]
0.3185
